These entries and their values trace back to patent US20180036289A1.

# Tested on: NCI-H82
# protocolNotes: Cell proliferation assay (ATPlite), drug with vs without cobicistat
# Format: cell-based
# reportedConditions: NCI-H82 cell line; 120 hours incubation
Lab note: anything with Fold change in IC50 (IC50 [Drug + Cobicistat]/IC50 [Drug]) below 2 fold is marked TRUE; values at 2 fold or higher are marked FALSE.

{"compoundString": "CC(=O)O[C@H]1C(=O)[C@@]2(C)[C@H]([C@H](OC(=O)c3ccccc3)[C@]3(O)C[C@H](OC(=O)[C@H](O)[C@@H](NC(=O)c4ccccc4)c4ccccc4)C(C)=C1C3(C)C)[C@]1(OC(C)=O)CO[C@@H]1C[C@@H]2O", "targetOfAssay": "NCI-H82", "classLabel": "FALSE"}
{"compoundString": "CC[C@]1(O)C[C@@H]2CN(CCc3c([nH]c4ccccc34)[C@@](C(=O)OC)(c3cc4c(cc3OC)N(C)[C@H]3[C@@](O)(C(=O)OC)[C@H](OC(C)=O)[C@]5(CC)C=CCN6CC[C@]43[C@@H]65)C2)C1", "targetOfAssay": "NCI-H82", "classLabel": "FALSE"}
{"compoundString": "COc1cccc2c1C(=O)c1c(O)c3c(c(O)c1C2=O)C[C@@](O)(C(=O)CO)C[C@@H]3O[C@H]1C[C@H](N)[C@H](O)[C@H](C)O1", "targetOfAssay": "NCI-H82", "classLabel": "FALSE"}
{"compoundString": "CC[C@]1(O)C[C@H]2CN(CCc3c([nH]c4ccccc34)[C@@](C(=O)OC)(c3cc4c(cc3OC)N(C=O)[C@H]3[C@@](O)(C(=O)OC)[C@H](OC(C)=O)[C@]5(CC)C=CCN6CC[C@]43[C@@H]65)C2)C1", "targetOfAssay": "NCI-H82", "classLabel": "FALSE"}
{"compoundString": "Cc1nc(Nc2ncc(C(=O)Nc3c(C)cccc3Cl)s2)cc(N2CCN(CCO)CC2)n1", "targetOfAssay": "NCI-H82", "classLabel": "TRUE"}
{"compoundString": "CC(=O)O[C@@]12CO[C@@H]1C[C@H](O)[C@@]1(C)C(=O)[C@H](O)C3=C(C)[C@@H](OC(=O)[C@H](O)[C@@H](NC(=O)OC(C)(C)C)c4ccccc4)C[C@@](O)([C@@H](OC(=O)c4ccccc4)[C@H]21)C3(C)C", "targetOfAssay": "NCI-H82", "classLabel": "FALSE"}

====

# System: A-704
# protocolNotes: Cell proliferation assay (ATPlite), drug with vs without cobicistat
# Type: cell-based
# reportedConditions: A-704 cell line; 120 hours incubation
valueType: Fold change in IC50 (IC50 [Drug + Cobicistat]/IC50 [Drug])

{"compound": "CC[C@]1(O)C[C@@H]2CN(CCc3c([nH]c4ccccc34)[C@@](C(=O)OC)(c3cc4c(cc3OC)N(C)[C@H]3[C@@](O)(C(=O)OC)[C@H](OC(C)=O)[C@]5(CC)C=CCN6CC[C@]43[C@@H]65)C2)C1 [vinblastine]", "measurement": "3.8 fold"}
{"compound": "CC[C@]1(O)C[C@H]2CN(CCc3c([nH]c4ccccc34)[C@@](C(=O)OC)(c3cc4c(cc3OC)N(C=O)[C@H]3[C@@](O)(C(=O)OC)[C@H](OC(C)=O)[C@]5(CC)C=CCN6CC[C@]43[C@@H]65)C2)C1 [vincristine]", "measurement": "2.0 fold"}
{"compound": "COc1cccc2c1C(=O)c1c(O)c3c(c(O)c1C2=O)C[C@@](O)(C(=O)CO)C[C@@H]3O[C@H]1C[C@H](N)[C@H](O)[C@H](C)O1 [doxorubicin]", "measurement": "1.3 fold"}
